experimental-target: FAAH (Rattus norvegicus, UniProt P97612)
Construct: Preparation of Rat Brain Membranes Preparations (FAAH Enzyme Solution); from tissue; host or cells: rat cerebrum (brain membrane preparation)
test-protocol: Determination of FAAH inhibitory activity in rat (rat brain membrane preparations, [3H]-anandamide hydrolysis)
Format: biochemical
assay-context: rat brain membrane preparations; test substance 0.1 nM to 1 μM; read-out: FAAH Inhibition IC50
Procedure: Determination of FAAH Inhibitory Activity in Rat The preparation of rat brain membranes preparations and the determination of FAAH inhibitory activity were carried out according to the Jonsson et al. method [Br. J. Pharmacol., 133, 1263 (2001)]. (1) Preparation of Rat Brain Membranes Preparations (FAAH Enzyme Solution) The cerebrum was extracted from rats and was freeze-stored at −80° C. […]
pIC50: −log10 of the molar value.
quantity-kind: pIC50

Solved entries:
COc1cccc(-c2ncc3c(n2)n(C)c(=O)n3C(=O)N(C)Cc2ccc(F)cc2)c1: 8.05
Cc1ccc(CCc2ncc3c(n2)n(C(=O)N(C)C)c(=O)n3C)cc1: 7.96
Cn1c(=O)n(C(=O)N2CCCC2)c2cnc(-c3ccc(F)cc3)nc21: 8.22

[A] Cn1c(=O)n(C(=O)N2CCCC2)c2nc(/C=C/c3ccc(F)cc3)ncc21
[B] Cn1c(=O)n(C(=O)N2CCC2)c2nc(-c3ccc(OC(F)(F)F)cc3)ncc21
Query: Endpoint returns whichever of A and B has the numerically higher pIC50. Please indicate the selected item by its label.
Response: B

[P] Cn1c(=O)n(C(=O)N2CCCC2)c2cnc(/C=C/c3ccc(F)cc3)nc21
[Q] Cc1cccc(Cc2ncc3c(n2)n(C(=O)N2CCCC2)c(=O)n3C)c1
Query: Pick one, P or Q : lowest reported pIC50. Your answer should be the label attached to the chosen record.
Response: Q

----------
experimental-target: FAAH (Rattus norvegicus)
Construct: Preparation of Rat Brain Membranes Preparations (FAAH Enzyme Solution); from tissue; host or cells: rat cerebrum (brain membrane preparation)
test-protocol: Determination of FAAH inhibitory activity in rat (rat brain membrane preparations, [3H]-anandamide hydrolysis)
Format: biochemical
assay-context: rat brain membrane preparations; test substance 0.1 nM to 1 μM; read-out: FAAH Inhibition IC50
pIC50: −log10 of the molar value.
quantity-kind: pIC50

Would you please look over these solved cases?
CCCCn1c(=O)n(C(=O)N2CCCC2)c2cnc(-c3ccccc3)nc21: 7.82
Cc1ccc(C)c(CCc2ncc3c(n2)n(C(=O)N(C)C)c(=O)n3C)c1: 7.62

[A] Cn1c(=O)n(C(=O)N2CCCC2)c2nc(/C=C/c3ccc(C(F)(F)F)cc3)ncc21
[B] COc1cccc(OCc2ncc3c(n2)n(C)c(=O)n3C(=O)N2CCC2)c1
Query: Which of the two items, A and B , has the greater recorded pIC50? Refer to your chosen entry by its label in the reply.
Response: A

----------
experimental-target: FAAH (Rattus norvegicus, UniProt P97612)
Construct: Preparation of Rat Brain Membranes Preparations (FAAH Enzyme Solution); from tissue; host or cells: rat cerebrum (brain membrane preparation)
test-protocol: Determination of FAAH inhibitory activity in rat (rat brain membrane preparations, [3H]-anandamide hydrolysis)
Type: biochemical
assay-context: rat brain membrane preparations; 100 nM test substance; read-out: FAAH Inhibition, Inhibition Rate at 100 nM
Description: Determination of FAAH Inhibitory Activity in Rat The preparation of rat brain membranes preparations and the determination of FAAH inhibitory activity were carried out according to the Jonsson et al. method [Br. J. Pharmacol., 133, 1263 (2001)]. (1) Preparation of Rat Brain Membranes Preparations (FAAH Enzyme Solution) The cerebrum was extracted from rats and was freeze-stored at −80° C. […]
quantity-kind: inhibition at 0.1 µM (%)

Answered cases to consult:
CCN(C)C(=O)n1c(=O)n(C)c2cnc(CCc3cccc(OC(F)(F)F)c3)nc21: 83
CCN(C)C(=O)n1c(=O)n(C)c2cnc(CCc3cccc(C)c3)nc21: 78
COc1cccc(-c2ncc3c(n2)n(C)c(=O)n3C(=O)N(C)Cc2ccc(C(F)(F)F)cc2)c1: 94

[P] O=C(N1CCCC1)n1c(=O)[nH]c2nc(-c3ccccc3)ncc21
[Q] CCOC(=O)CCc1ncc2c(n1)n(C)c(=O)n2C(=O)N1CCCC1
Query: I'd appreciate it if you could identify which of P and Q has the greater inhibition at 0.1 µM. // return label of chosen record
Response: P

----------
experimental-target: FAAH (Rattus norvegicus)
Construct: Preparation of Rat Brain Membranes Preparations (FAAH Enzyme Solution); from tissue; host or cells: rat cerebrum (brain membrane preparation)
Sequence (P97612 1-579): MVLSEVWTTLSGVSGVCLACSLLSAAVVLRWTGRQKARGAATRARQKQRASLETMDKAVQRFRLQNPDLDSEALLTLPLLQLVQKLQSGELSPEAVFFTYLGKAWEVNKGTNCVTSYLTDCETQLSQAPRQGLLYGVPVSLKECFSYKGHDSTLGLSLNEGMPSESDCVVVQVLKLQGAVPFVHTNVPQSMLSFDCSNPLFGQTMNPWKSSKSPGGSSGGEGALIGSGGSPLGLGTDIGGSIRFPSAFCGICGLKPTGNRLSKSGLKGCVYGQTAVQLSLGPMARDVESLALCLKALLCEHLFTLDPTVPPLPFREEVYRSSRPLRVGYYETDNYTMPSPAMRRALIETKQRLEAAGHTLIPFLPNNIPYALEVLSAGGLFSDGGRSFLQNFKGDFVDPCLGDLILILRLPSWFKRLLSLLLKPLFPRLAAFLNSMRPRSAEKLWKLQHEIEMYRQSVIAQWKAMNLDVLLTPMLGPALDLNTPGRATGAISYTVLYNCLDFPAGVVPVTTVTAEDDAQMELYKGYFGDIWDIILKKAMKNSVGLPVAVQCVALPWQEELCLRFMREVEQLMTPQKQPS
test-protocol: Determination of FAAH inhibitory activity in rat (rat brain membrane preparations, [3H]-anandamide hydrolysis)
Type: biochemical
assay-context: rat brain membrane preparations; 100 nM test substance; read-out: FAAH Inhibition, Inhibition Rate at 100 nM
quantity-kind: inhibition at 0.1 µM (%)

Cc1ccc(OCc2ncc3c(n2)n(C(=O)N2CCC2)c(=O)n3C)cc1: 80
CCCOc1cccc(CCc2ncc3c(n2)n(C(=O)N(C)C)c(=O)n3C)c1: 61
COCc1ncc2c(n1)n(C)c(=O)n2C(=O)N1CC(c2ccc(C(F)(F)F)cc2)C1: 95

[I] Cn1c(=O)n(C(=O)N2CCC2)c2nc(COc3ccccc3F)ncc21
[II] COCc1ncc2c(n1)n(C)c(=O)n2C(=O)N1CC(c2ccccc2C)C1
[III] CCOCc1ncc2c(n1)n(C)c(=O)n2C(=O)N1CC(c2ccc(OCC)cc2)C1
Query: Arrange the 3 entries by inhibition at 0.1 µM so the values rise. Your answer should be the labels, listed in the requested order.
Response: II, I, III
(II: 54%, I: 79%, III: 136%)

[P] Cc1cccc(CCc2ncc3c(n2)n(C(=O)N(C)C)c(=O)n3C)c1
[Q] COc1ccccc1Cc1ncc2c(n1)n(C(=O)N1CCCC1)c(=O)n2C
Query: Smaller inhibition at 0.1 µM value, P vs Q ? Refer to your chosen entry by its label in the reply.
Response: Q
(Q: 58%, P: 93%)

[P] CCOc1ccc(C2CN(C(=O)n3c(=O)n(C)c4nc(CCCOC)ncc43)C2)cc1
[Q] CN(C)C(=O)n1c(=O)n(C)c2cnc(CCc3ccc(OCC(F)F)cc3)nc21
Query: Which of the two items, P and Q , has the greater recorded inhibition at 0.1 µM? Please identify the chosen entry by its label.
Response: P
(P: 99%, Q: 51%)

[1] CCN(C)C(=O)n1c(=O)n(C)c2nc(-c3ccccc3)ncc21
[2] CN(C)C(=O)n1c(=O)n(C)c2cnc(-c3cccc(F)c3)nc21
Query: Consider 1 and 2 . Which of these has its inhibition at 0.1 µM at a higher number? Please respond with the label that marks your chosen entry.
Response: 1

----------
experimental-target: FAAH (Rattus norvegicus, UniProt P97612)
Construct: Preparation of Rat Brain Membranes Preparations (FAAH Enzyme Solution); from tissue; host or cells: rat cerebrum (brain membrane preparation)
test-protocol: Determination of FAAH inhibitory activity in rat (rat brain membrane preparations, [3H]-anandamide hydrolysis)
Format: biochemical
assay-context: rat brain membrane preparations; test substance 0.1 nM to 1 μM; read-out: FAAH Inhibition IC50
pIC50: −log10 of the molar value.
quantity-kind: pIC50

[P] Cc1cc(CCc2ncc3c(n2)n(C(=O)N(C)C)c(=O)n3C)ccc1F
[Q] CN(C)C(=O)n1c(=O)n(C)c2cnc(CCc3ccc(F)cc3F)nc21
Query: Look at P and Q . Which one has the lower recorded pIC50 number? To answer, give the label that identifies your chosen option.
Response: Q
(Q: 7.55, P: 8.00)

----------
experimental-target: FAAH (Rattus norvegicus)
Construct: Preparation of Rat Brain Membranes Preparations (FAAH Enzyme Solution); from tissue; host or cells: rat cerebrum (brain membrane preparation)
test-protocol: Determination of FAAH inhibitory activity in rat (rat brain membrane preparations, [3H]-anandamide hydrolysis)
Type: biochemical
assay-context: rat brain membrane preparations; 100 nM test substance; read-out: FAAH Inhibition, Inhibition Rate at 100 nM
quantity-kind: inhibition at 0.1 µM (%)

Some compounds with recorded inhibition at 0.1 µM:
CCCCc1ncc2c(n1)n(C)c(=O)n2C(=O)N(C)CC [Example 161]: 93
COC(=O)CN(C)C(=O)n1c(=O)n(C)c2nc(-c3ccccc3)ncc21 [Example 38]: 73
CC(C)c1ccc(CCc2ncc3c(n2)n(C(=O)N(C)C)c(=O)n3C)cc1 [compound 502]: 104
Cn1c(=O)n(C(=O)N2CCCC2)c2nc(Cc3ccc(F)c(F)c3)ncc21 [Example 293]: 97
Cn1c(=O)n(C(=O)N2CCCC2)c2cnc(-c3cccc(Cl)c3)nc21 [Example 17]: 101

[1] COCc1ncc2c(n1)n(C)c(=O)n2C(=O)N1CC(c2ccc(F)cc2F)C1 [Example 454]
[2] Cc1cccc(OCc2ncc3c(n2)n(C)c(=O)n3C(=O)N2CCC2)c1 [compound 411]
Query: // returns 1 or 2 , whichever has the lower inhibition at 0.1 µM Your answer should be the label attached to the chosen record.
Response: 2
(2: 45%, 1: 89%)
